# experimentalDetails: RP, Waters ACQUITY UPLC HSS T3, 150 × 2.1 mm, 1.7 µm, 30 °C, 0.4 mL/min, estimated dead time 0.83 min; A: water + 0.2% formic acid; B: 2% water + 98% acetonitrile + 0.2% formic acid; gradient (min/%B) 0/0 2.5/0 7.5/10 10/100 12/100 18/0 25/0
# recordedConditions: stereoisomer not certain
The label Condition met is reserved for LC retention time strictly under 9 min; Condition not met covers values equal to or above it.

- molecule: "Cc1cc(Cl)ccc1OCC(=O)O [(4-chloro-2-methylphenoxy)acetic acid]"
  answerLabel: "Condition not met"
- molecule: "O=C(O)c1cccc(O)c1 [3-hydroxybenzoic acid]"
  answerLabel: "Condition not met"
- molecule: "O=c1cc(-c2ccc(O)cc2)oc2cc(O)cc(O)c12 [apigenin]"
  answerLabel: "Condition not met"
- molecule: "NC(CCCC(=O)O)C(=O)O (stereo not given) [2-aminoadipic acid]"
  answerLabel: "Condition met"
- molecule: "CSC[C@H]1O[C@@H](n2cnc3c(N)ncnc32)[C@H](O)[C@@H]1O [5'-S-methyl-5'-thioadenosine]"
  answerLabel: "Condition met"
- molecule: "O=C(O)C=Cc1cccc(O)c1 [3-coumaric acid]"
  answerLabel: "Condition not met"
- molecule: "Oc1cccc2cccnc12 [quinolin-8-ol]"
  answerLabel: "Condition met"
- molecule: "O=C(O)Cn1ccc2ccccc21 [1H-indole-1-acetic acid]"
  answerLabel: "Condition not met"
- molecule: "O=Cc1ccc(O)cc1 [4-hydroxybenzaldehyde]"
  answerLabel: "Condition not met"
- molecule: "C=C1C(=O)OC2C1CCC(=C)C1CCC(=C)C12 (stereo not given) [dehydrocostus lactone]"
  answerLabel: "Condition not met"
- molecule: "O=C(O)CCCCC(=O)O [adipic acid]"
  answerLabel: "Condition met"
- molecule: "CC(C)CC(=O)C(=O)O [4-methyl-2-oxopentanoic acid]"
  answerLabel: "Condition not met"
- molecule: "O=C(COP(=O)(O)O)[C@@H](O)[C@H](O)[C@H](O)CO [D-fructose 1-phosphate]"
  answerLabel: "Condition met"
- molecule: "Nc1ccnc(=O)[nH]1 [cytosine]"
  answerLabel: "Condition met"
- molecule: "C[n+]1cccc(C(=O)[O-])c1 [N-methylnicotinate]"
  answerLabel: "Condition met"
- molecule: "NC(=O)c1cccnc1 [nicotinamide]"
  answerLabel: "Condition met"

---

Listed below: LC retention time values for each entry.
# experimentalDetails: RP, Waters ACQUITY UPLC HSS T3, 150 × 2.1 mm, 1.7 µm, 30 °C, 0.4 mL/min, estimated dead time 0.83 min; A: water + 0.2% formic acid; B: 2% water + 98% acetonitrile + 0.2% formic acid; gradient (min/%B) 0/0 2.5/0 7.5/10 10/100 12/100 18/0 25/0
# recordedConditions: stereoisomer not certain
recordedEndpoint: LC retention time (min)

- molecule: "Cc1cc(O)c2c(c1)C(=O)c1cc(O)cc(O)c1C2=O"
  uom: "min"
  assayResult: 10.7
- molecule: "O=c1c(O)c(-c2ccc(O)cc2)oc2cc(O)cc(O)c12"
  uom: "min"
  assayResult: 9.98
- molecule: "O=C(O)C1CCCN1 (stereo not given)"
  uom: "min"
  assayResult: 1.73
- molecule: "CC(O)(CC(=O)O)C(=O)O (stereo not given)"
  uom: "min"
  assayResult: 5.17
- molecule: "CCCCCCCCCCCCCCCC[C@@H](O)C(=O)O [(R)-2-hydroxystearic acid]"
  uom: "min"
  assayResult: 12.4
